The origin of these recorded values is ChEMBL document CHEMBL1201862.

tested on: PC-3; assay: NCI tumour cell line growth inhibition, 48 h
Calls of active or inactive are those of the source. No stated cut-off is given here; in the data, active = GI50 up to about 1.1 µM and inactive = higher.
Outcome codes: true (1) = active, false (0) = inactive

Molecule	Target System	Category
CNC(=O)c1ccccc1-[s+]1c2ccccc2c(=O)n1C (centres undefined)	PC-3	false (0)
[N-]=[N+]=CC(=O)OC(CCl)CCl	PC-3	false (0)
Cc1ccc(S(=O)(=O)c2c(O)c3ccccc3n(C)c2=O)cc1	PC-3	false (0)
O=[N+]([O-])c1cccc2nc3ccccc3c(NCCCN3CCCCC3)c12	PC-3	true (1)

====

Quick list: GI50 per entry.
tested on: DLD-1; test: NCI tumour cell line growth inhibition, 48 h
Calls of active or inactive are those of the source. Rule as the data show it: active = GI50 up to about 1.1 µM and inactive = higher.
Readout Type: GI50

Compound	Target System	Readout Type	Readout Value
COc1ccc(-c2cc(-c3ccccc3)c(C#N)c(=O)[nH]2)cc1	DLD-1	GI50	> 100 µM (inactive)
Brc1cccc(/C=N/C23CC4CC(CC(C4)C2)C3)c1	DLD-1	GI50	> 100 µM (inactive)
O=c1c2cccc3cccc(c4oc5c6cccc7cccc(c(=O)c5c14)c76)c32	DLD-1	GI50	15.1 µM (inactive)
CCOc1ccc(NC(=O)C2=C(C)NC(C)=C(C(=O)Nc3ccc(OCC)cc3)C2c2ccc(O)c(OC)c2)cc1	DLD-1	GI50	96.2 µM (inactive)
CN(C)CCCSc1c2ccccc2nc2cc(NCC(=O)Nc3ccccc3-c3ccccc3NC(=O)CNc3ccc4c(SCCCN(C)C)c5ccccc5nc4c3)ccc12	DLD-1	GI50	> 100 µM (inactive)
